Assay: Wnt pathway potentiators raising nuclear beta-catenin – imaging, WNT3A-conditioned medium, mouse C2C12, NPC library, primary screen (AID 1117326); also: reference of the scale not given here
Details: stimulation, at 2 µM, stronger effect = higher value

compound: COc1ccc2[nH]cc(CCNC(C)=O)c2c1
nuclear beta-catenin stimulation: -0.2%
//
compound: COCCCC/C(=N\OCCN)c1ccc(C(F)(F)F)cc1
nuclear beta-catenin stimulation: 0.4%
//
compound: OC[C@H]1O[C@@H](Oc2ccc(O)cc2)[C@H](O)[C@@H](O)[C@@H]1O
nuclear beta-catenin stimulation: 1%
//
compound: NC1CCN(c2nc3c(cc2F)c(=O)c(C(=O)O)cn3-c2ccc(F)cc2F)C1 (stereo not given)
nuclear beta-catenin stimulation: 0.1%
//
compound: COc1cc(C(=O)NS(=O)(=O)c2ccccc2C)ccc1Cc1cn(C)c2ccc(NC(=O)OC3CCCC3)cc12
nuclear beta-catenin stimulation: 0.4%
